// reported % inhibition of BACE1 activity, short FRET substrate for each item listed
Molecular target: human BACE1 ECD; note: test concentration or dose not given here
Sequence (single chain, as listed by the source limits assumed): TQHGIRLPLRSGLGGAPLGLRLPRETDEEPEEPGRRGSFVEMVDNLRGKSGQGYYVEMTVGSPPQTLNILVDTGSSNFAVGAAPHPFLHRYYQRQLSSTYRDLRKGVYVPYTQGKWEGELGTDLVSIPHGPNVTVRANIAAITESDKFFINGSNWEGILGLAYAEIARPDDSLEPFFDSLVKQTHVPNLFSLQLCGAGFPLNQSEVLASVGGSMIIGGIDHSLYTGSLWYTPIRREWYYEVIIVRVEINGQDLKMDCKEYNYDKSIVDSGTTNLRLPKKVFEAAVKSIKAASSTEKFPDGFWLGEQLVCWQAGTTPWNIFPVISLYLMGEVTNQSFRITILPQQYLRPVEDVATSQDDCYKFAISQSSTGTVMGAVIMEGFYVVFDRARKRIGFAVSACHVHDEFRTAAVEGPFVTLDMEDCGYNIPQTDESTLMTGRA
Assay: cell-based or functional assay
readout.label: % inhibition of BACE1 activity, short FRET substrate (%)

| binder | result.unit | assay.result |
| --- | --- | --- |
| 5880 (antibody, V domains shown, anti-BACE1 IgG) VH: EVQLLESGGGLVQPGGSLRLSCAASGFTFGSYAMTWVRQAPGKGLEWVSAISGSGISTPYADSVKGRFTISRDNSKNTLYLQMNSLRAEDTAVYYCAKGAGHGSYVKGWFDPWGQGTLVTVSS VL: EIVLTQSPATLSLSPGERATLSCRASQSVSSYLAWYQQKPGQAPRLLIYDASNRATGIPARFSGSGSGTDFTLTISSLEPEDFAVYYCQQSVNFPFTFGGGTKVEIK | % | 99 |
| 5876 (antibody, V domains shown, anti-BACE1 IgG) VH: EVQLLESGGGLVQPGGSLRLSCAASGFTFSSRAMGWVRQAPGKGLEWVSATSGSGGSIYYADSVKGRFTISRDNSKNTLYLQMNSLRAEDTAVYYCAKGGSQWLYAPGSWFDPWGQGTLVTVSS VL: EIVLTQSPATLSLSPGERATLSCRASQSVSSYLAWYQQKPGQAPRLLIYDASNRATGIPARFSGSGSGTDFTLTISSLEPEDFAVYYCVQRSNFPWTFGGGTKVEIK | % | 58 |
| 5884 (antibody, V domains shown, anti-BACE1 IgG) VH: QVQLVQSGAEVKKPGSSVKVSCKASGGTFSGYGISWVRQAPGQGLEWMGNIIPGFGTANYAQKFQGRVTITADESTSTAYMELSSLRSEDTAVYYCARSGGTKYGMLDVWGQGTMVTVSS VL: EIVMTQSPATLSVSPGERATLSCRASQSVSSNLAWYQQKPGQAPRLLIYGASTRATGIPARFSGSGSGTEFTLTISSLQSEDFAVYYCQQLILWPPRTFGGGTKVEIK | % | -102 |
